Tested on: PANC08.13 (pancreatic cancer cell line)
Assay info: KRAS Cell Titer Glo (CTG) viability assay, Panc08.13
Format: cell-based
Measurement setup: Panc08.13, 7-day; geometric mean when n>1
Metric: IC50 (nM)
# output: bare number, implied unit nM

IC50 for "C#Cc1c(F)c(F)cc2cc(O)cc(-c3nc4c5c(nc(OC[C@@]67CCCN6C[C@H](F)C7)nc5c3F)N3CCCC[C@H]3CO4)c12" ?
1.1

* * *

Target system: WT GTPγS KRAS (aa1-185) (Homo sapiens)
pKd: −log10 of the molar value.
Metric: pKd

Tell me reported pKd for C#Cc1c(F)ccc2cc(O)cc(-c3nc4c5c(nc(OC[C@@]67CCCN6C/C(=C/F)C7)nc5c3F)N3CCCOC[C@H]3CO4)c12 [Example 34] , tested with WT GTPγS KRAS (aa1-185) (Homo sapiens).
> 10.97

* * *

Target system: G12C GTPγS KRAS (aa2-184) (Homo sapiens, UniProt P01116, G12C)
Construct: G12CGDP KRAS (aa2-184); made in house
Assay info: SPR binding (Biacore), GTPγS-loaded KRAS G12C
Measurement setup: dissociative half-life, t1/2=0.693/koff
Let's look at some compounds and their measured KRasGTPgS G12C SPR t1/2.
# output: bare number, implied unit h

Here is how some compounds turned out for KRasGTPgS G12C SPR t1/2.
>>> value_reported("C#Cc1c(F)c(F)cc2cc(O)cc(-c3nc4c5c(nc(OC[C@@]67CCCN6C[C@H](F)C7)nc5c3F)N3CCCC[C@H]3CO4)c12 [Example 33]")
17.6
>>> value_reported("C=C1CN2CCC[C@@]2(COc2nc3c4c(nc(-c5cc(O)cc6ccc(F)c(CC)c56)c(F)c4n2)OC[C@@H]2COCCCN32)C1 [Example 35]")
17.8
>>> value_reported("C#Cc1c(F)ccc2cc(O)cc(-c3nc4c5c(nc(OC[C@@]67CCCN6CC(=C)C7)nc5c3F)N(CC)CCO4)c12 [Example 37]")
0.4

Next:
KRasGTPgS G12C SPR t1/2 for C#Cc1c(F)ccc2cc(O)cc(-c3nc4c5c(nc(OC[C@@]67CCCN6CC(=C)C7)nc5c3F)N3CCCC[C@H]3CO4)c12 [Example 36] ?
11.0

* * *

Let's look at some compounds and their measured pKd.
Target system: G12C GDP KRAS (aa2-184) (Homo sapiens, UniProt P01116, G12C)
Assay info: biochemical
Kindly note that pKd refers to -log10 of the concentration in mol/L and answer with the value alone.

>>> value_reported("C=C1CN2CCC[C@@]2(COc2nc3c4c(nc(-c5cc(O)cc6ccc(F)c(CC)c56)c(F)c4n2)OC[C@@H]2COCCCN32)C1")
11.05
>>> value_reported("C#Cc1c(F)ccc2cc(O)cc(-c3nc4c5c(nc(OC[C@@]67CCCN6CC(=C)C7)nc5c3F)N3CCCC[C@H]3CO4)c12")
10.17

Next:
Tell me reported pKd for "C#Cc1c(F)ccc2cc(O)cc(-c3nc4c5c(nc(OC[C@@]67CCCN6CC(=C)C7)nc5c3F)N(CC)CCO4)c12" , tested with G12C GDP KRAS (aa2-184) (Homo sapiens, UniProt P01116, G12C).
11.00

* * *

Target system: G12D GTPγS KRAS (aa1-185) (Homo sapiens, UniProt P01116, G12D)
Construct: G12DGDP KRAS (aa1-185)
Assay info: SPR binding (Biacore), GTPγS-loaded KRAS G12D
Measurement setup: 10° C., geometric mean when n>1, read-out: KRasGTPgS G12D SPR KD
Metric: Kd (nM)
# output: bare number, implied unit nM

Here is how some compounds turned out for Kd.
>>> value_reported("C=C1CN2CCC[C@@]2(COc2nc3c4c(nc(-c5cc(O)cc6ccc(F)c(CC)c56)c(F)c4n2)OC[C@@H]2COCCCN32)C1 [Example 35]")
0.092
>>> value_reported("C#Cc1c(F)ccc2cc(O)cc(-c3nc4c5c(nc(OC[C@@]67CCCN6CC(=C)C7)nc5c3F)N(CC)CCO4)c12 [Example 37]")
1.27
>>> value_reported("C#Cc1c(F)ccc2cc(O)cc(-c3nc4c5c(nc(OC[C@@]67CCCN6CC(=C)C7)nc5c3F)N3CCCC[C@H]3CO4)c12 [Example 36]")
0.404

Next:
Tell me reported Kd for C#Cc1c(F)c(F)cc2cc(O)cc(-c3nc4c5c(nc(OC[C@@]67CCCN6C[C@H](F)C7)nc5c3F)N3CCCC[C@H]3CO4)c12 [Example 33] , tested with G12D GTPγS KRAS (aa1-185) (Homo sapiens, UniProt P01116, G12D).
0.119

* * *

Target system: G12V GTPγS KRAS (aa2-184) (Homo sapiens, UniProt P01116, G12V)
Construct: G12VGDP KRAS (aa2-184)
Assay info: SPR binding (Biacore), GTPγS-loaded KRAS G12V
Measurement setup: 10° C., geometric mean when n>1, read-out: KRasGTPgS G12V SPR KD
Let's look at some molecules and their measured pKd.
Kindly note that pKd refers to -log10 of the concentration in mol/L and answer with the value alone.

Here is how some molecules turned out for pKd.
>>> value_reported("C#Cc1c(F)ccc2cc(O)cc(-c3nc4c5c(nc(OC[C@@]67CCCN6CC(=C)C7)nc5c3F)N3CCCC[C@H]3CO4)c12")
9.50
>>> value_reported("C#Cc1c(F)c(F)cc2cc(O)cc(-c3nc4c5c(nc(OC[C@@]67CCCN6C[C@H](F)C7)nc5c3F)N3CCCC[C@H]3CO4)c12")
9.76
>>> value_reported("C#Cc1c(F)ccc2cc(O)cc(-c3nc4c5c(nc(OC[C@@]67CCCN6CC(=C)C7)nc5c3F)N(CC)CCO4)c12")
8.68

pKd for "C=C1CN2CCC[C@@]2(COc2nc3c4c(nc(-c5cc(O)cc6ccc(F)c(CC)c56)c(F)c4n2)OC[C@@H]2COCCCN32)C1" ?
9.68

* * *

Target system: wild-type (WT) KRAS GDP (aa1-185) (Homo sapiens, UniProt P01116)
Metric: Kd (pM)
# output: bare number, implied unit pM

Tell me reported Kd for "C=C1CN2CCC[C@@]2(COc2nc3c4c(nc(-c5cc(O)cc6ccc(F)c(CC)c56)c(F)c4n2)OC[C@@H]2COCCCN32)C1" , tested with wild-type (WT) KRAS GDP (aa1-185) (Homo sapiens, UniProt P01116).
7

* * *

Target system: WT GTPγS KRAS (aa1-185) (Homo sapiens)
Construct: wild-type (WT) KRASGDP (aa1-185); made in house
Assay info: SPR binding (Biacore), GTPγS-loaded WT KRAS
Measurement setup: dissociative half-life, t1/2=0.693/koff
Metric: KRasGTPgS SPR t1/2 (h)
# output: bare number, implied unit h

Here is how some molecules turned out for KRasGTPgS SPR t1/2.
>>> value_reported("C=C1CN2CCC[C@@]2(COc2nc3c4c(nc(-c5cc(O)cc6ccc(F)c(CC)c56)c(F)c4n2)OC[C@@H]2COCCCN32)C1 [Example 35]")
12.4
>>> value_reported("C#Cc1c(F)ccc2cc(O)cc(-c3nc4c5c(nc(OC[C@@]67CCCN6CC(=C)C7)nc5c3F)N(CC)CCO4)c12 [Example 37]")
0.3
>>> value_reported("C#Cc1c(F)ccc2cc(O)cc(-c3nc4c5c(nc(OC[C@@]67CCCN6CC(=C)C7)nc5c3F)N3CCCC[C@H]3CO4)c12 [Example 36]")
6.0

KRasGTPgS SPR t1/2 for C#Cc1c(F)c(F)cc2cc(O)cc(-c3nc4c5c(nc(OC[C@@]67CCCN6C[C@H](F)C7)nc5c3F)N3CCCC[C@H]3CO4)c12 [Example 33] ?
12.7

* * *

Target system: G12C GTPγS KRAS (aa2-184) (Homo sapiens, UniProt P01116, G12C)
Construct: G12CGDP KRAS (aa2-184)
Assay info: SPR binding (Biacore), GTPγS-loaded KRAS G12C
Measurement setup: 10° C., geometric mean when n>1, read-out: KRasGTPgS G12C SPR KD
Let's look at some molecules and their measured pKd.
Kindly note that pKd refers to -log10 of the concentration in mol/L and answer with the value alone.

>>> value_reported("C#Cc1c(F)c(F)cc2cc(O)cc(-c3nc4c5c(nc(OC[C@@]67CCCN6C[C@H](F)C7)nc5c3F)N3CCCC[C@H]3CO4)c12")
9.69
>>> value_reported("C=C1CN2CCC[C@@]2(COc2nc3c4c(nc(-c5cc(O)cc6ccc(F)c(CC)c56)c(F)c4n2)OC[C@@H]2COCCCN32)C1")
9.74
>>> value_reported("C#Cc1c(F)ccc2cc(O)cc(-c3nc4c5c(nc(OC[C@@]67CCCN6CC(=C)C7)nc5c3F)N3CCCC[C@H]3CO4)c12")
9.43

Next:
pKd for "C#Cc1c(F)ccc2cc(O)cc(-c3nc4c5c(nc(OC[C@@]67CCCN6CC(=C)C7)nc5c3F)N(CC)CCO4)c12" ?
8.52
